test system: 521955-158-R6-J3-PDC complex spheroid growth, % test/control; test: Anticancer human tumor 521955-158-R6-J3-PDC patient-derived pancreatic carcinoma cell line growth inhibition [Asc]; conditions: second compound 10 µM; first compound 0.316 µM; stronger effect = lower value
viability, T/C listing for selected compounds.
Entry rule: numbers only, all in %.

C=CC(=O)N1CCN(c2nc(=O)n(-c3c(C)ccnc3C(C)C)c3nc(-c4c(O)cccc4F)c(F)cc23)C(C)C1 (stereo not given) + Cc1c(S(C)(=O)=O)c(-c2cc(F)cc(N3CCN(c4ccc(NS(=O)(=O)c5ccc(NC(CCN6CCC(C(=O)OCCCP(=O)(O)O)CC6)CSc6ccccc6)c(S(=O)(=O)C(F)(F)F)c5)cc4)CC3)c2)c(-c2ccc(Cl)cc2)n1C(C)C    12.5
CCN1CCN(Cc2ccc(Nc3ncc(F)c(-c4cc(F)c5nc(C)n(C(C)C)c5c4)n3)nc2)CC1 + Cc1c(S(C)(=O)=O)c(-c2cc(F)cc(N3CCN(c4ccc(NS(=O)(=O)c5ccc(NC(CCN6CCC(C(=O)OCCCP(=O)(O)O)CC6)CSc6ccccc6)c(S(=O)(=O)C(F)(F)F)c5)cc4)CC3)c2)c(-c2ccc(Cl)cc2)n1C(C)C    26.6
C=C(F)C(=O)N1CCN(c2nc(OCC3CCCN3C)nc3c2CCN(c2cccc4cccc(Cl)c24)C3)CC1CC#N (stereo not given) + Cc1c(S(C)(=O)=O)c(-c2cc(F)cc(N3CCN(c4ccc(NS(=O)(=O)c5ccc(NC(CCN6CCC(C(=O)OCCCP(=O)(O)O)CC6)CSc6ccccc6)c(S(=O)(=O)C(F)(F)F)c5)cc4)CC3)c2)c(-c2ccc(Cl)cc2)n1C(C)C    21.8
O=C(c1cc(Cc2n[nH]c(=O)c3ccccc23)ccc1F)N1CCN(C(=O)C2CC2)CC1 + Cc1c(S(C)(=O)=O)c(-c2cc(F)cc(N3CCN(c4ccc(NS(=O)(=O)c5ccc(NC(CCN6CCC(C(=O)OCCCP(=O)(O)O)CC6)CSc6ccccc6)c(S(=O)(=O)C(F)(F)F)c5)cc4)CC3)c2)c(-c2ccc(Cl)cc2)n1C(C)C    11.7

Qu. # query: viability, T/C | item C#Cc1c(F)ccc2cc(O)cc(-c3ncc4c(N5CC6CCC(C5)N6)nc(OCC56CCCN5CC(F)C6)nc4c3F)c12 (stereo not given) + Cc1c(S(C)(=O)=O)c(-c2cc(F)cc(N3CCN(c4ccc(NS(=O)(=O)c5ccc(NC(CCN6CCC(C(=O)OCCCP(=O)(O)O)CC6)CSc6ccccc6)c(S(=O)(=O)C(F)(F)F)c5)cc4)CC3)c2)c(-c2ccc(Cl)cc2)n1C(C)C | system: 521955-158-R6-J3-PDC complex spheroid growth, % test/control
Ans. 5

====

tested on: 521955-158-R6-J3-PDC complex spheroid growth, % test/control; experiment: Anticancer human tumor 521955-158-R6-J3-PDC cell line growth inhibition [Asc]; conditions: second compound 0.00316 µM; first compound 0.316 µM; stronger effect = lower value;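 also: spheroids exposed to compounds for 7 days; 100% = DMSO vehicle control wells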
MEASUREMENT_NAME: viability, T/C (%)
Entry rule: numbers only, all in %.

Reference set (6 entries):
C#Cc1c(F)ccc2cc(O)cc(-c3ncc4c(N5CC6CCC(C5)N6)nc(OCC56CCCN5CC(F)C6)nc4c3F)c12 (configuration not stated) + CNC(C)C(=O)NC1CN(S(=O)(=O)c2cccc(S(=O)(=O)N3CCC4CCC(C(=O)NC(c5ccccc5)c5ccccc5)N4C(=O)C(NC(=O)C(C)NC)C3)c2)CCC2CCC(C(=O)NC(c3ccccc3)c3ccccc3)N2C1=O    46.8
C=C(F)C(=O)N1CCN(c2nc(OCC3CCCN3C)nc3c2CCN(c2cccc4cccc(Cl)c24)C3)CC1CC#N (configuration not stated) + CNC(C)C(=O)NC1CN(S(=O)(=O)c2cccc(S(=O)(=O)N3CCC4CCC(C(=O)NC(c5ccccc5)c5ccccc5)N4C(=O)C(NC(=O)C(C)NC)C3)c2)CCC2CCC(C(=O)NC(c3ccccc3)c3ccccc3)N2C1=O    81.2
COc1c(OCCCN2CCOCC2)ccc2c3n(c(=NC(=O)c4cnc(N)nc4)nc12)CCN3 + CNC(C)C(=O)NC1CN(S(=O)(=O)c2cccc(S(=O)(=O)N3CCC4CCC(C(=O)NC(c5ccccc5)c5ccccc5)N4C(=O)C(NC(=O)C(C)NC)C3)c2)CCC2CCC(C(=O)NC(c3ccccc3)c3ccccc3)N2C1=O    41.2
O=C(c1ccc(F)c(F)c1Nc1ccc(I)cc1F)N1CC(O)([C@@H]2CCCCN2)C1 + CNC(C)C(=O)NC1CN(S(=O)(=O)c2cccc(S(=O)(=O)N3CCC4CCC(C(=O)NC(c5ccccc5)c5ccccc5)N4C(=O)C(NC(=O)C(C)NC)C3)c2)CCC2CCC(C(=O)NC(c3ccccc3)c3ccccc3)N2C1=O    60
C=CC(=O)N1CCN(c2nc(=O)n(-c3c(C)ccnc3C(C)C)c3nc(-c4c(O)cccc4F)c(F)cc23)C(C)C1 (configuration not stated) + CNC(C)C(=O)NC1CN(S(=O)(=O)c2cccc(S(=O)(=O)N3CCC4CCC(C(=O)NC(c5ccccc5)c5ccccc5)N4C(=O)C(NC(=O)C(C)NC)C3)c2)CCC2CCC(C(=O)NC(c3ccccc3)c3ccccc3)N2C1=O    116
O=C(c1cc(Cc2n[nH]c(=O)c3ccccc23)ccc1F)N1CCN(C(=O)C2CC2)CC1 + CNC(C)C(=O)NC1CN(S(=O)(=O)c2cccc(S(=O)(=O)N3CCC4CCC(C(=O)NC(c5ccccc5)c5ccccc5)N4C(=O)C(NC(=O)C(C)NC)C3)c2)CCC2CCC(C(=O)NC(c3ccccc3)c3ccccc3)N2C1=O    153

Qu. Could you tell me which viability, T/C is on file for CCN1CCN(Cc2ccc(Nc3ncc(F)c(-c4cc(F)c5nc(C)n(C(C)C)c5c4)n3)nc2)CC1 + CNC(C)C(=O)NC1CN(S(=O)(=O)c2cccc(S(=O)(=O)N3CCC4CCC(C(=O)NC(c5ccccc5)c5ccccc5)N4C(=O)C(NC(=O)C(C)NC)C3)c2)CCC2CCC(C(=O)NC(c3ccccc3)c3ccccc3)N2C1=O ?
Ans. 136
